- experimental.target: TNFα (Homo sapiens, UniProt P01375)
- Sequence (P01375 77-233 limits assumed): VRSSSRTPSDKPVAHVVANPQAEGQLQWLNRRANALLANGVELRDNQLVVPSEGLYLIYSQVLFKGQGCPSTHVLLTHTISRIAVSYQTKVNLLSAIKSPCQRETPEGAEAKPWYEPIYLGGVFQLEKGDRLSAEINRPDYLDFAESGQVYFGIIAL
- protocol.description: TNF-Induced HEK-Blue Assay
- Type: cell-based
- applied.conditions: HEK-Blue-CD40L cells, NF-kB-driven secreted alkaline phosphatase reporter; TNFα 0.5 ng/ml; 18 h; read-out: TNF induced HEK-Blue assay IC50 value
pIC50: −log10 of the molar value. Positions of bridges follow the written chain, without caps; N, C: chain ends. Non-standard residues stand in square brackets, D forms with d. Residues, ends and D or L forms follow the SMILES beside them. Bip = N[C@@H](Cc1ccc(-c2ccccc2)cc1)C(=O)O; Sar = CNCC(=O)O
measured.metric: pIC50

I would be grateful if you could share the reported pIC50 for CC(C)C[C@@H]1NC(=O)[C@H](CCCNC(=N)N)NC(=O)[C@H](C(C)C)NC(=O)[C@@H]2CCCN2C(=O)[C@H](C(C)C)NC(=O)[C@H](CCCNC(=N)N)NC(=O)[C@H](CC(=O)O)NC(=O)[C@@H]2CCCN2C(=O)CN(C)C(=O)[C@H](Cc2ccc(-c3ccccc3)cc2)NC(=O)[C@H](Cc2ccc(-c3ccccc3)cc2)NC(=O)[C@H](Cc2ccc(O)cc2)NC(=O)CSC[C@@H](C(=O)NCC(N)=O)NC1=O [Example 4] ({CH2CO}-Y[Bip][Bip][Sar]PDRVPVRLCG-NH2; thioether N-13) .
5.70 to 6.70

Would you kindly repeat that for CC(C)C[C@@H]1NC(=O)[C@H](CCCNC(=N)N)NC(=O)[C@H](C(C)C)NC(=O)[C@@H]2CCCN2C(=O)[C@H](C(C)C)NC(=O)[C@H](CCCNC(=N)N)NC(=O)[C@H](CC(=O)O)NC(=O)[C@@H]2CCCN2C(=O)CN(C)C(=O)[C@H](Cc2ccc(-c3ccccc3)cc2)NC(=O)[C@H](Cc2ccc(-c3ccccc3)cc2)NC(=O)[C@H](Cc2ccccc2)NC(=O)CSC[C@@H](C(=O)NCC(N)=O)NC1=O [Example 1] ({CH2CO}-F[Bip][Bip][Sar]PDRVPVRLCG-NH2; thioether N-13) ?
5.70 to 6.70

###

- experimental.target: UniProt:P01375
- protocol.description: TNF-Induced HEK-Blue Assay
- Type: cell-based
- applied.conditions: HEK-Blue-CD40L cells, NF-kB-driven secreted alkaline phosphatase reporter; TNFα 0.5 ng/ml; 18 h; read-out: TNF induced HEK-Blue assay IC50 value
pIC50: −log10 of the molar value. Starred links: 1 amine or outer side, 2 acyl side, 3 side chain; linkers in the order of their positions; H or OH if unused. Positions of bridges follow the written chain, without caps; N, C: chain ends. Non-standard residues stand in square brackets, D forms with d. Residues, ends and D or L forms follow the SMILES beside them. Bip(4'-NHAc) = CC(=O)Nc1ccc(-c2ccc(C[C@H](N)C(=O)O)cc2)cc1; X59 = O=C([C@H](Cc1c(F)cc(F)cc1F)N[*:1])[*:2]; Bip = N[C@@H](Cc1ccc(-c2ccccc2)cc1)C(=O)O; Cha = N[C@@H](CC1CCCCC1)C(=O)O; Chg = N[C@H](C(=O)O)C1CCCCC1; Sar = CNCC(=O)O
# pIC50 values compiled below

>>> endpoint_result("CC(C)C[C@@H]1NC(=O)[C@H](CCCNC(=N)N)NC(=O)[C@H](C(C)C)NC(=O)[C@@H]2CCCN2C(=O)[C@H](C(C)C)NC(=O)[C@H](CCCNC(=N)N)NC(=O)[C@H](CC(=O)O)NC(=O)[C@@H]2CCCN2C(=O)CN(C)C(=O)[C@H](Cc2ccc(-c3ccccc3)cc2)NC(=O)[C@H](Cc2ccc(-c3ccccc3)cc2)NC(=O)[C@H](Cc2c(F)cc(F)cc2F)NC(=O)CSC[C@@H](C(=O)NCC(N)=O)NC1=O [Example 31] ({CH2CO}-[X59][Bip][Bip][Sar]PDRVPVRLCG-NH2; thioether N-13)")
"5.70 to 6.70"

Next compound, please.
I would be grateful if you could share the reported pIC50 for CC(=O)Nc1ccc(-c2ccc(C[C@@H]3NC(=O)[C@H](Cc4ccc(-c5ccccc5)cc4)NC(=O)[C@H](CC4CCCCC4)NC(=O)CSC[C@@H](C(=O)NCC(N)=O)NC(=O)[C@H](CC(C)C)NC(=O)[C@H](Cc4ccc(O)cc4)NC(=O)[C@H](C4CCCCC4)NC(=O)[C@@H]4CCCN4C(=O)[C@H](C(C)C)NC(=O)[C@@H](CCCNC(=N)N)NC(=O)[C@H](CC(=O)O)NC(=O)[C@@H]4CCCN4C(=O)CN(C)C3=O)cc2)cc1 [Example 310] ({CH2CO}-[Cha][Bip][Bip(4'-NHAc)][Sar]PD[dR]VP[Chg]YLCG-NH2; thioether N-13) .
6.70 to 7.30

###

- experimental.target: TNFα (Homo sapiens, UniProt P01375)
- protocol.description: TNF-Induced HEK-Blue Assay
- Assay type: cell-based
- applied.conditions: HEK-Blue-CD40L cells, NF-kB-driven secreted alkaline phosphatase reporter; TNFα 0.5 ng/ml; 18 h; read-out: TNF induced HEK-Blue assay IC50 value
Positions of bridges follow the written chain, without caps; N, C: chain ends. Non-standard residues stand in square brackets, D forms with d. Residues, ends and D or L forms follow the SMILES beside them. Bip(4'-NHAc) = CC(=O)Nc1ccc(-c2ccc(C[C@H](N)C(=O)O)cc2)cc1; Bip = N[C@@H](Cc1ccc(-c2ccccc2)cc1)C(=O)O; h4Pal = N[C@@H](CCc1ccncc1)C(=O)O; Cya = N[C@@H](CS(=O)(=O)O)C(=O)O; Cha = N[C@@H](CC1CCCCC1)C(=O)O; Sar = CNCC(=O)O
measured.metric: IC50

>>> endpoint_result("CC(=O)Nc1ccc(-c2ccc(C[C@@H]3NC(=O)[C@H](Cc4ccc(-c5ccccc5)cc4)NC(=O)[C@H](CC4CCCCC4)NC(=O)CSC[C@@H](C(=O)NCC(N)=O)NC(=O)[C@H](CC(C)C)NC(=O)[C@H](Cc4ccc(O)cc4)NC(=O)[C@H](C(C)C)NC(=O)[C@@H]4CCCN4C(=O)[C@H](C(C)C)NC(=O)[C@@H](CCCNC(=N)N)NC(=O)[C@H](CS(=O)(=O)O)NC(=O)[C@@H]4CCCN4C(=O)CN(C)C3=O)cc2)cc1 [Example 309] ({CH2CO}-[Cha][Bip][Bip(4'-NHAc)][Sar]P[Cya][dR]VPVYLCG-NH2; thioether N-13)")
"50 to 200 nM"

I would be grateful if you could share the reported IC50 for CC(C)C[C@@H]1NC(=O)[C@H](CCCNC(=N)N)NC(=O)[C@H](C(C)C)NC(=O)[C@@H]2CCCN2C(=O)[C@H](C(C)C)NC(=O)[C@H](CCCNC(=N)N)NC(=O)[C@H](CC(=O)O)NC(=O)[C@@H]2CCCN2C(=O)CN(C)C(=O)[C@H](Cc2ccc(-c3ccccc3)cc2)NC(=O)[C@H](Cc2ccc(-c3ccccc3)cc2)NC(=O)[C@H](CCc2ccncc2)NC(=O)CSC[C@@H](C(=O)NCC(N)=O)NC1=O [Example 10] ({CH2CO}-[h4Pal][Bip][Bip][Sar]PDRVPVRLCG-NH2; thioether N-13) .
200 to 2000 nM

###

- experimental.target: TNFα (Homo sapiens, UniProt P01375)
- protocol.description: TNF-Induced HEK-Blue Assay
- Format: cell-based
- applied.conditions: HEK-Blue-CD40L cells, NF-kB-driven secreted alkaline phosphatase reporter; TNFα 0.5 ng/ml; 18 h; read-out: TNF induced HEK-Blue assay IC50 value
pIC50: −log10 of the molar value. Positions of bridges follow the written chain, without caps; N, C: chain ends. Non-standard residues stand in square brackets, D forms with d. Residues, ends and D or L forms follow the SMILES beside them. Ala(morpholin-4-yl) = N[C@@H](CN1CCOCC1)C(=O)O; Bip = N[C@@H](Cc1ccc(-c2ccccc2)cc1)C(=O)O; Val(3-OH) = CC(C)(O)[C@H](N)C(=O)O; hhPhe = N[C@@H](CCCc1ccccc1)C(=O)O; 3Pal = N[C@@H](Cc1cccnc1)C(=O)O; d(αMeP) = C[C@]1(C(=O)O)CCCN1; Sar = CNCC(=O)O
# pIC50 values compiled below

>>> endpoint_result("CC(C)C[C@@H]1NC(=O)[C@H](CCCNC(=N)N)NC(=O)[C@H](C(C)C)NC(=O)[C@@H]2CCCN2C(=O)[C@H](Cc2cccnc2)NC(=O)[C@H](CCCNC(=N)N)NC(=O)[C@H](CC(=O)O)NC(=O)[C@@H]2CCCN2C(=O)CN(C)C(=O)[C@H](Cc2ccc(-c3ccccc3)cc2)NC(=O)[C@H](Cc2ccc(-c3ccccc3)cc2)NC(=O)[C@H](C(C)(C)O)NC(=O)CSC[C@@H](C(=O)NCC(N)=O)NC1=O [Example 60] ({CH2CO}-[Val(3-OH)][Bip][Bip][Sar]PDR[3Pal]PVRLCG-NH2; thioether N-13)")
"5.70 to 6.70"
>>> endpoint_result("CC(C)C[C@@H]1NC(=O)[C@H](CCCNC(=N)N)NC(=O)[C@H](C(C)C)NC(=O)[C@@H]2CCCN2C(=O)[C@H](Cc2cccnc2)NC(=O)[C@H](CCCNC(=N)N)NC(=O)[C@H](CC(=O)O)NC(=O)[C@@H]2CCCN2C(=O)CN(C)C(=O)[C@H](Cc2ccc(-c3ccccc3)cc2)NC(=O)[C@H](Cc2ccc(-c3ccccc3)cc2)NC(=O)[C@H](Cc2ccccc2)NC(=O)CSC[C@@H](C(=O)NCC(N)=O)NC1=O [Example 26] ({CH2CO}-F[Bip][Bip][Sar]PDR[3Pal]PVRLCG-NH2; thioether N-13)")
"5.70 to 6.70"
>>> endpoint_result("CC(C)C[C@@H]1NC(=O)[C@H](CCCNC(=N)N)NC(=O)[C@H](C(C)C)NC(=O)[C@@H]2CCCN2C(=O)[C@H](C(C)C)NC(=O)[C@H](CCCNC(=N)N)NC(=O)[C@H](CC(=O)O)NC(=O)[C@@H]2CCCN2C(=O)CN(C)C(=O)[C@H](Cc2ccc(-c3ccccc3)cc2)NC(=O)[C@H](Cc2ccc(-c3ccccc3)cc2)NC(=O)[C@H](CCCc2ccccc2)NC(=O)CSC[C@@H](C(=O)NCC(N)=O)NC1=O [Example 12] ({CH2CO}-[hhPhe][Bip][Bip][Sar]PDRVPVRLCG-NH2; thioether N-13)")
"5.70 to 6.70"

Next compound, please.
I would be grateful if you could share the reported pIC50 for CC(C)C[C@@H]1NC(=O)[C@H](CCCNC(=N)N)NC(=O)[C@H](C(C)C)NC(=O)[C@@H]2CCCN2C(=O)[C@H](C(C)C)NC(=O)[C@@H](CCCNC(=N)N)NC(=O)[C@H](CC(=O)O)NC(=O)[C@@]2(C)CCCN2C(=O)CN(C)C(=O)[C@H](Cc2ccc(-c3ccccc3)cc2)NC(=O)[C@H](Cc2ccc(-c3ccccc3)cc2)NC(=O)[C@H](CN2CCOCC2)NC(=O)CSC[C@@H](C(=O)NCC(N)=O)NC1=O [Example 103] ({CH2CO}-[Ala(morpholin-4-yl)][Bip][Bip][Sar][d(αMeP)]D[dR]VPVRLCG-NH2; thioether N-13) .
5.70 to 6.70
